Hello, the source for this data is ChEMBL document CHEMBL1201862, in case you need it.

Test system: DMS-114
Assay: NCI tumour cell line growth inhibition, 48 h
Active and inactive are the calls of the source. No stated cut-off is given here; in the data, active = GI50 up to about 1.1 µM and inactive = higher.
Valid outcomes are listed here; reply with one: active, inactive

Here's what some known entries look like.
Dear all, I need the recorded test outcome for CC1(C2CCC3(C)C(C2)C3Sc2ccccc2)OCCO1 (stereo unspecified) , thank you.
inactive

Here is the next molecule: OCC[N+]12CCCN1CCC2
inactive

Here is the next molecule: Cn1nc2ccccc2cc1=O
inactive

Here is the next molecule: N#CC(NNC(=O)Cc1ccccc1)c1c(O)ccc2ccccc12 (stereo unspecified)
inactive

Here is the next molecule: CC1CC(c2ccc([N+](=O)[O-])cc2)=Nc2ccccc2[S+]1[O-] (stereo unspecified)
inactive

Others:
Dear all, I need the recorded test outcome for O=c1[nH]nc2c3n[nH]c(=O)n3c3ccccc3n12 , thank you.
inactive

Here is the next molecule: CC1OC(n2cc(F)c(=O)[nH]c2=O)C=CC1=O (stereo unspecified)
inactive

Here is the next molecule: COC1CC(CC2CCC(C)C(C(C)C(=O)O)O2)OC2(OC(C)(C3CCC(C)(C4OC(C5OC(O)(CO)C(C)CC5C)CC4C)O3)CC2C)C1C (stereo unspecified)
active

Here is the next molecule: CC1(C)C(=O)OC(n2cc(F)c(=O)[nH]c2=O)C1=O (stereo unspecified)
inactive

Here is the next molecule: COc1cc2c(cc1OC)[C@H]1CN3CCC[C@H]3C=C1c1ccc(OC)c(O)c1-2
active

Here is the next molecule: CC(N)Cc1ccc(F)cc1 (stereo unspecified)
inactive

Here is the next molecule: CCNC(=O)OCc1c(COC(=O)NCC)c(-c2ccc(Cl)c(Cl)c2)n2c1CCC2
inactive
